Quick record: pIC50, UniProt:P35354.
Sequence (P35354 18-604): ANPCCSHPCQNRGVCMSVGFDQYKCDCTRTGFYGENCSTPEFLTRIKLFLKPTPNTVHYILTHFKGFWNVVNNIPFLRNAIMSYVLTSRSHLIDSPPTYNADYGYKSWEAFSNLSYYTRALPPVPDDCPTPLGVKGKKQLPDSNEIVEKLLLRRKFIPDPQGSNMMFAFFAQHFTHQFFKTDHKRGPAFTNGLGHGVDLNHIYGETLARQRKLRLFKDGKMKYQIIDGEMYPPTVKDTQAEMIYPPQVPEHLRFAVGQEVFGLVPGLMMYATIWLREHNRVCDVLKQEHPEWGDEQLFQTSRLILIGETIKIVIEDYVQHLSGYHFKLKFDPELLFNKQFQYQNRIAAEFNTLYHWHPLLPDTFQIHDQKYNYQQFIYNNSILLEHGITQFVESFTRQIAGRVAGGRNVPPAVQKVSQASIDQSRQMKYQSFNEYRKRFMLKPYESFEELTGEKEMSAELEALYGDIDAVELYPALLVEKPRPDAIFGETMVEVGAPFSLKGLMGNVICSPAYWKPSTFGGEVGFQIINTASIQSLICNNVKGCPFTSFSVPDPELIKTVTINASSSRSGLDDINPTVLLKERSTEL
Units for pIC50: none; it is -log10 of a concentration expressed in mol/L.

| molecule | recorded measurement |
| --- | --- |
| CS(=O)(=O)c1ccc(-c2cc(C(F)(F)F)nc(NC3CCCCC3)n2)nc1 [Example 5] | 7.72 |

Entry Cc1cc(-c2ccc(S(C)(=O)=O)cn2)nc(NCc2ccccc2)n1 [Example 1] ; assay system UniProt:P35354; pIC50 recorded at 7.29

Short answer on UniProt:P35354 for Cc1cccc(CN(C)c2nc(-c3ccc(S(C)(=O)=O)cn3)cc(C(F)(F)F)n2)n1 [Example 3] , pIC50: 8.30

---

Record set of pIC50 for target or system COX-1 (Homo sapiens, UniProt P23219).
pIC50 is defined as minus the log10 of a concentration measured in mol/L.

| query smiles | pIC50 |
| --- | --- |
| Cc1cc(-c2ccc(S(C)(=O)=O)cn2)nc(NCc2ccccc2)n1 | 4.64 |

// below: pIC50 requested for another compound
// pIC50 value for Cc1cccc(CN(C)c2nc(-c3ccc(S(C)(=O)=O)cn3)cc(C(F)(F)F)n2)n1 : 4.17
